tested_on: human TRPM8 (Homo sapiens, UniProt Q7Z2W7)
Sequence (Q7Z2W7 whole entry): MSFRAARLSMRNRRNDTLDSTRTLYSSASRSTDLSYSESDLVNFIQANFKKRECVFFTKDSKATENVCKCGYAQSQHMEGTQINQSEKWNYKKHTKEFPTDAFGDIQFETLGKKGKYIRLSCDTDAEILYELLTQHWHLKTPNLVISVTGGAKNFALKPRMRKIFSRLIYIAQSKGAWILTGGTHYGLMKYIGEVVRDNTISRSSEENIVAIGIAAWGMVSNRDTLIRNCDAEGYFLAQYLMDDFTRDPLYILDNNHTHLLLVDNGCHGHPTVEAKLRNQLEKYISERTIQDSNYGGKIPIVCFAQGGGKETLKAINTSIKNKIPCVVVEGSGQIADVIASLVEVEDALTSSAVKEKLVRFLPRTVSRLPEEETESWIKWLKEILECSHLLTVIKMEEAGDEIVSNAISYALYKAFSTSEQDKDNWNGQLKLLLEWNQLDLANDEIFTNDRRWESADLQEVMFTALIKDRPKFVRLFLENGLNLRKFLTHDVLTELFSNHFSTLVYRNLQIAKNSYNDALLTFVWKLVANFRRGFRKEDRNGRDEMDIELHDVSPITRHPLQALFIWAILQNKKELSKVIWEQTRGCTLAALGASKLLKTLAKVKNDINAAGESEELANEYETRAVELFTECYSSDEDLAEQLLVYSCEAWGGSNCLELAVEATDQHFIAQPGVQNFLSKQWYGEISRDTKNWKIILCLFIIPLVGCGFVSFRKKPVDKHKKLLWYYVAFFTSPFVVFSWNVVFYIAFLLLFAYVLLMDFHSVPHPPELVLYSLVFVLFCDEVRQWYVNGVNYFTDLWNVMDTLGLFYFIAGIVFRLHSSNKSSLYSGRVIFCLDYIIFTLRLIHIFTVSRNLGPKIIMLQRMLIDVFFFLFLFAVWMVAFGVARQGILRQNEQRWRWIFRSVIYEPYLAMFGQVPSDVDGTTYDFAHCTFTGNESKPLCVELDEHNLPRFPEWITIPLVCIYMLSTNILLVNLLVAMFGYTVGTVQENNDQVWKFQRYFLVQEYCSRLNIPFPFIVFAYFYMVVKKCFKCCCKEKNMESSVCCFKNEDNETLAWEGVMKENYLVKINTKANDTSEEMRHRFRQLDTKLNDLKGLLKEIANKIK
assay_procedure: Menthol-induced Ca2+ influx in HEK293 cells stably expressing human TRPM8
protocol_conditions: 30 microM menthol-induced Ca2+ influx, read-out: IC50 against TRPM8
assay_metric: IC50

Guide cases for IC50, answers given:
For Cc1ccccc1-n1ncc(C(=O)CN2C(=O)NC3(CCC(F)(F)CC3)C2=O)c1C , write its IC50.
< 0.5 µM

For Cc1ccsc1-c1ccc(C(=O)CN2C(=O)NC3(CCC(F)(F)CC3)C2=O)cc1 , write its IC50.
< 0.1 µM

For Cc1ccccc1-c1ccc(C(=O)CN2C(=O)NC3(CCCCC3)C2=O)cn1 , write its IC50.
< 0.01 µM

For O=C(CN1C(=O)NC2(CCC(F)(F)CC2)C1=O)c1ccc(-n2cnc3ccccc32)nc1 , write its IC50.
< 0.1 µM

For Cn1c(C(=O)CN2C(=O)NC3(CCC(F)(F)CC3)C2=O)cnc1-c1ccccc1 , write its IC50.
< 0.5 µM

For Cc1nc(C(=O)CN2C(=O)NC3(CCC(F)(F)CC3)C2=O)c(C)n1-c1cccc(F)c1 , write its IC50.
< 0.1 µM

New cases:
For COCc1ccccc1-c1ccc(C(=O)CN2C(=O)NC3(CCC(F)(F)CC3)C2=O)cc1 , write its IC50.
< 0.1 µM

For Cc1cc(C(=O)CN2C(=O)NC3(CCC(F)(F)CC3)C2=O)ccc1-c1cccnc1 , write its IC50.
< 0.1 µM

For O=C(CN1C(=O)NC2(CCCCC2)C1=O)c1ccc(-c2cccnc2CO)cc1 , write its IC50.
< 0.1 µM

For Cc1ncncc1-c1ccc(C(=O)CN2C(=O)NC3(CCC(F)(F)CC3)C2=O)cc1 , write its IC50.
< 0.1 µM

For O=C(CN1C(=O)OC2(CCC(F)(F)CC2)C1=O)c1ccc(-c2ccccn2)cc1 , write its IC50.
< 0.1 µM

For Cc1cc(-n2c(C)cc(C(=O)CN3C(=O)NC4(CCC(F)(F)CC4)C3=O)c2C)no1 , write its IC50.
< 0.1 µM

For COc1ccccc1-c1ccc(C(=O)CN2C(=O)NC3(CCCCC3)C2=O)cn1 , write its IC50.
< 0.01 µM

For O=C(CN1C(=O)NC2(CCC(F)(F)CC2)C1=O)c1ccc(Sc2ccccc2)nc1 , write its IC50.
< 0.5 µM

For Cc1ccc2nc(C(F)F)n(-c3ccc(C(=O)CN4C(=O)NC5(CCC(F)(F)CC5)C4=O)cc3)c2n1 , write its IC50.
< 0.01 µM

For Cc1sc(C(=O)CN2C(=O)NC3(CCC(F)(F)CC3)C2=O)c(C)c1-c1cccc(CO)c1 , write its IC50.
< 0.5 µM

---

tested_on: human TRPM8 (Homo sapiens)
assay_procedure: Menthol-induced Ca2+ influx in HEK293 cells stably expressing human TRPM8
protocol_conditions: 30 microM menthol-induced Ca2+ influx, read-out: IC50 against TRPM8
Recorded IC50 values for a group of molecules are listed next.

State, for human TRPM8 (Homo sapiens), measured IC50 of the molecule listed here: Cc1ncccc1-c1ccc(C(=O)CN2C(=O)NC3(CCCCC3)C2=O)cc1
< 0.01 µM

New cases:
State, for human TRPM8 (Homo sapiens), measured IC50 of the molecule listed here: Cc1cc(C(=O)CN2C(=O)NC3(CCC(F)(F)CC3)C2=O)sc1-c1cncc(C#N)c1
< 0.1 µM

State, for human TRPM8 (Homo sapiens), measured IC50 of the molecule listed here: Cc1nc(C(=O)CN2C(=O)NC3(CCC(F)(F)CC3)C2=O)c(C)n1-c1cccc(Cl)c1
< 0.1 µM

State, for human TRPM8 (Homo sapiens), measured IC50 of the molecule listed here: Cc1cc(C(=O)CN2C(=O)NC3(CCC(F)(F)CC3)C2=O)n(C)c1-c1cc(F)cc(F)c1
< 0.1 µM

---

Recorded pIC50 values for a group of compounds are listed next.
tested_on: human TRPM8 (Homo sapiens)
assay_procedure: Menthol-induced Ca2+ influx in HEK293 cells stably expressing human TRPM8
protocol_conditions: 30 microM menthol-induced Ca2+ influx, read-out: IC50 against TRPM8
pIC50: −log10 of the molar value.

For Cc1cncc(-n2c(C)cc(C(=O)CN3C(=O)NC4(CCC(F)(F)CC4)C3=O)c2C)n1 , write its pIC50.
> 7.00

For N#Cc1cccc(Oc2ccc(C(=O)CN3C(=O)NC4(CCC(F)(F)CC4)C3=O)cc2)n1 , write its pIC50.
> 7.00

For O=C(CN1C(=O)NC2(CCC(F)(F)CC2)C1=O)c1ccc(-c2ccc3ccccc3n2)cc1 , write its pIC50.
> 7.00

For Cc1ccc(C)c(-c2ccc(C(=O)CN3C(=O)NC4(CCC(F)(F)CC4)C3=O)cc2)c1 , write its pIC50.
> 6.30

For Cn1nccc1-c1ccc(C(=O)CN2C(=O)NC3(CCCCC3)C2=O)cc1 , write its pIC50.
> 7.00

For Cc1c(C(=O)CN2CC3(CCC(F)(F)CC3)OC2=O)ccn1-c1ccccc1 , write its pIC50.
> 6.30

For Cc1cc(C(=O)CN2C(=O)NC3(CCC(F)(F)CC3)C2=O)c(C)n1-c1nnn(C)n1 , write its pIC50.
> 6.30

For O=C(CN1C(=O)NC2(CCC(F)(F)CC2)C1=O)c1ccc(-c2cncc3[nH]ncc23)cc1 , write its pIC50.
> 8.00

For Cc1ncccc1-c1sc(C(=O)CN2C(=O)NC3(CCC(F)(F)CC3)C2=O)nc1C , write its pIC50.
> 6.30

For Cn1c(C(=O)CN2C(=O)NC3(CCC(F)(F)CC3)C2=O)ccc1-c1cncc(F)c1 , write its pIC50.
> 6.30

// moving on: another record for pIC50
For N#CCc1ccccc1-c1ccc(C(=O)CN2C(=O)NC3(CCC(F)(F)CC3)C2=O)cc1 , write its pIC50.
> 7.00

---

Recorded pIC50 values for a group of compounds are listed next.
tested_on: human TRPM8 (Homo sapiens, UniProt Q7Z2W7)
assay_procedure: Menthol-induced Ca2+ influx in HEK293 cells stably expressing human TRPM8
protocol_conditions: 30 microM menthol-induced Ca2+ influx, read-out: IC50 against TRPM8
pIC50: −log10 of the molar value.

Guide cases for pIC50, answers given:
For Cc1ccnnc1-c1ccc(C(=O)CN2C(=O)OC3(CCC(F)(F)CC3)C2=O)cc1 , write its pIC50.
> 7.00

For Cc1nc(C(=O)CN2C(=O)OC3(CCC(F)(F)CC3)C2=O)c(C)n1-c1ccccc1 , write its pIC50.
> 7.00

For Cc1nc(C(=O)CN2C(=O)NC3(CCC(F)(F)CC3)C2=O)sc1-c1cccc(C(N)=O)c1 , write its pIC50.
> 6.30

For N#Cc1cnccc1-c1ccc(C(=O)CN2C(=O)NC3(CCC(F)(F)CC3)C2=O)cc1 , write its pIC50.
> 7.00

For O=C(CN1C(=O)NC2(CCC(F)(F)CC2)C1=O)c1ccc(-c2cccc3ccncc23)nc1 , write its pIC50.
> 8.00

For O=C(CN1C(=O)NC2(CCC(F)(F)CC2)C1=O)c1ccc(-c2cnn3ccccc23)cc1 , write its pIC50.
> 7.00

New cases:
For Cc1sc(C(=O)CN2C(=O)NC3(CCC(F)(F)CC3)C2=O)c(C)c1-c1cccnc1 , write its pIC50.
> 7.00

For O=C(CN1C(=O)NC2(CCC(F)(F)CC2)C1=O)c1ccc(-c2cccnc2CO)c(F)c1 , write its pIC50.
> 7.00

For O=C(CN1C(=O)NC2(CCC(F)(F)CC2)C1=O)c1ccc(-c2ccccc2CO)cc1 , write its pIC50.
> 8.00

---

tested_on: human TRPM8 (Homo sapiens)
assay_procedure: Menthol-induced Ca2+ influx in HEK293 cells stably expressing human TRPM8
protocol_conditions: 30 microM menthol-induced Ca2+ influx, read-out: IC50 against TRPM8
Description: Measurement of the Menthol-Induced Ca^2+ Influx in HEK293 Cells Stably Expressing Human TRPM8 A cell-based Ca^2+ influx assay using HEK293 cells stably expressing human TRPM8 is used to identify the activity of compounds. […] The IC50 values for compounds of the present invention are determined from 11-point dose-response studies. […] Finally, the IC50 values are calculated with the best-fit dose curve determined by XLfit (ID Business Solutions Ltd.).
Recorded IC50 values for a group of compounds are listed next.

Guide cases for IC50, answers given:
State, for human TRPM8 (Homo sapiens), measured IC50 of the compound listed here: Cc1ccc2nc(C(F)(F)F)n(-c3ccc(C(=O)CN4C(=O)NC5(CCC(F)(F)CC5)C4=O)cc3)c2n1
< 10 nM

State, for human TRPM8 (Homo sapiens), measured IC50 of the compound listed here: Cc1nc(C(=O)CN2C(=O)NC3(CCC(F)(F)CC3)C2=O)sc1-c1cccc(F)c1
< 100 nM

State, for human TRPM8 (Homo sapiens), measured IC50 of the compound listed here: O=C(CN1C(=O)NC2(CCC(F)(F)CC2)C1=O)c1ccc(-c2cnc3cccnn23)cc1
< 100 nM

State, for human TRPM8 (Homo sapiens), measured IC50 of the compound listed here: Nc1ccnnc1-c1ccc(C(=O)CN2C(=O)NC3(CCC(F)(F)CC3)C2=O)cc1F
< 500 nM

State, for human TRPM8 (Homo sapiens), measured IC50 of the compound listed here: O=C(CN1C(=O)NC2(CCC(F)(F)CC2)C1=O)c1ccc(-c2cccc3cccnc23)c(F)c1
< 100 nM

State, for human TRPM8 (Homo sapiens), measured IC50 of the compound listed here: O=C(CN1C(=O)NC2(CCC(F)(F)CC2)C1=O)c1ccc(-n2cnc3ncncc32)cc1
< 500 nM

State, for human TRPM8 (Homo sapiens), measured IC50 of the compound listed here: O=C(CN1C(=O)OC2(CCC(F)(F)CC2)C1=O)c1ccc(-c2nccc3ccncc23)cc1
< 10 nM

State, for human TRPM8 (Homo sapiens), measured IC50 of the compound listed here: O=C(CN1C(=O)NC2(CCC(F)(F)CC2)C1=O)c1ccc(N2CCOc3ccccc32)cc1
< 100 nM

New cases:
State, for human TRPM8 (Homo sapiens), measured IC50 of the compound listed here: N#Cc1nccnc1-c1ccc(C(=O)CN2CC3(CCC(F)(F)CC3)OC2=O)cc1
< 500 nM

State, for human TRPM8 (Homo sapiens), measured IC50 of the compound listed here: Cc1nc(C(=O)CN2CC3(CCC(F)(F)CC3)OC2=O)c(C)n1-c1cccc(F)c1
< 500 nM

State, for human TRPM8 (Homo sapiens), measured IC50 of the compound listed here: N#Cc1nccnc1-c1ccc(C(=O)CN2C(=O)NC3(CCC(F)(F)CC3)C2=O)cc1F
< 100 nM

State, for human TRPM8 (Homo sapiens), measured IC50 of the compound listed here: Cc1ccccc1-c1ccc(C(=O)CN2C(=O)NC3(CCC(F)(F)CC3)C2=O)nc1
< 100 nM

State, for human TRPM8 (Homo sapiens), measured IC50 of the compound listed here: O=C(CN1C(=O)NC2(CCC(F)(F)CC2)C1=O)c1ccc(-c2cccc3cnccc23)nc1
< 100 nM

State, for human TRPM8 (Homo sapiens), measured IC50 of the compound listed here: NCc1ncccc1-c1ccc(C(=O)CN2C(=O)NC3(CCC(F)(F)CC3)C2=O)cc1
< 500 nM

State, for human TRPM8 (Homo sapiens), measured IC50 of the compound listed here: O=C(CN1C(=O)NC2(CCC(F)(F)CC2)C1=O)c1ccc(-n2c(CO)nc3cccnc32)cc1
< 500 nM

State, for human TRPM8 (Homo sapiens), measured IC50 of the compound listed here: Cc1cc(C(=O)CN2C(=O)NC3(CCC(F)(F)CC3)C2=O)sc1-c1cccc(CO)c1
< 500 nM

Reference source: patent US10093678B2
